Hi there, I'd appreciate the recorded logP for every entry that follows.
Enter a number only.

Req: State the recorded logP for this entry: CCOP(=O)(SC(C)CC)N1CCSC1=O (centres undefined)
Resp: 1.68

Req: And the next one, Cc1cccc(C)c1N(C(=O)CCl)C1CCOC1=O (centres undefined) ?
Resp: 1.39

Req: And the next one, O=C(NC(=O)c1c(F)cccc1F)Nc1ccc(OC(F)(F)C(F)OC(F)(F)F)c(Cl)c1 (centres undefined) ?
Resp: 5.27

Req: And the next one, O=C(NC(=O)c1c(F)cccc1F)Nc1ccc(Cl)c(Oc2ncc(C(F)(F)F)cc2Cl)c1 ?
Resp: 5.1

Req: And the next one, CN(C)S(=O)(=O)N(SC(F)(Cl)Cl)c1ccccc1 ?
Resp: 3.7

Req: And the next one, COP(=O)(OC)SCn1c(=O)oc2cc(Cl)cnc21 ?
Resp: 1.05

Req: And the next one, Clc1ccc(CS/C(Cn2cncn2)=N\c2ccc(Cl)cc2Cl)cc1 ?
Resp: 4.94

Req: And the next one, Fc1cccc(F)c1-c1nnc(-c2ccccc2Cl)nn1 ?
Resp: 3.3

Req: And the next one, CCc1cccc(C)c1N(COC(C)C)C(=O)CCl ?
Resp: 3.5
